molecular target: NS3 (Hepatitis C virus, UniProt A3EZJ3, K136M); experiment: Binding affinity for enzyme K136M; parameters: species or system Hepacivirus hominis
pKi: −log10 of the molar value.
pKi listing for selected molecules.
PROPERTY: pKi

{"columns": ["MOLECULE", "TEST_RESULT"],
 "data": [
  ["CC(C)COC(=O)NC(CCC(=O)O)C(=O)N[C@@H](CC(C)C)C(=O)NC(CC(F)F)C(=O)NCCc1ccc(C(=O)O)cc1Cl (some centres not stated)", 5.89],
  ["CC(C)C[C@H](NC(=O)C(CCC(=O)O)NC(=O)OC(C)(C)C)C(=O)NC(CC(F)F)C(=O)NCCc1ccccc1Cl (some centres not stated)", 4.87]
]}
